subject of test: MASP-2 CCP2-SP (Homo sapiens (Human))
Sequence (O00187 445-686): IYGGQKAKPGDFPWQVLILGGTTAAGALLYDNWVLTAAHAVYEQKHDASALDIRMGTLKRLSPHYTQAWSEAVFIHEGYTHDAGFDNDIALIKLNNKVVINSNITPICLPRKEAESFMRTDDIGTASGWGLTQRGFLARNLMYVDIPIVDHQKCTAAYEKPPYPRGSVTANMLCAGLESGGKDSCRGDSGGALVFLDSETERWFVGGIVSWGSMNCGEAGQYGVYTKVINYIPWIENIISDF
Sequence (O00187 364-432 partner): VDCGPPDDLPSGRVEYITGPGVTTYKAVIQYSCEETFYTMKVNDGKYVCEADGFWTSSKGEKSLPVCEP
protocol summary: MASP-2 co-crystallization, X-ray crystallography and structure analysis (H-bonds, van der Waals contacts);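 also: distance from averaged pharmacophore element to bound ligand; missing value means element absent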
run conditions: Table A4-1; element C4
I'd appreciate it if you could supply Ligand-pharmacophore element distance, pharmacophore element C4 values for the items below.
Reply briefly: the number, and no unit.

Return value of Ligand-pharmacophore element distance, pharmacophore element C4 for input C[C@H](NC(=O)[C@H]1C[C@H](c2ccccc2)CN1)C(=O)NCc1ccc2c(N)nccc2c1 , no commentary.
0

Identify measured Ligand-pharmacophore element distance, pharmacophore element C4 corresponding to C[C@H](NC(=O)[C@H](N)CCc1cccc(Cl)c1)C(=O)NCc1ccc(C(=N)N)cc1
1.99

Item C[C@H](NC(=O)[C@H]1C[C@@H](c2ccccc2)CCN1)C(=O)NCc1cc(Cl)ccc1O.Cl [1078_2] : provide Ligand-pharmacophore element distance, pharmacophore element C4
0

State its Ligand-pharmacophore element distance, pharmacophore element C4: Cc1nc(N)ccc1CNC(=O)[C@H](C)NC(=O)[C@H]1C[C@H](Cc2ccc(-c3ccccc3)cc2)CN1
0
